assay: Thermal stability measurement (TG/DTA weight reduction temperature); conditions: TG/DTA, air 200 mL/min, 10° C./min, 30° C. to 600° C.
Would you kindly list Weight reduction temperature 20% for each of these compounds?
Numbers only, in °C.

{"compound": "CCCCCCCCCCCCCCCCCC[N+]1=C2CCCCCN2CCC1.O=S(=O)([N-]S(=O)(=O)C(F)(F)C(F)(F)C(F)(F)C(F)(F)F)C(F)(F)C(F)(F)C(F)(F)C(F)(F)F", "Weight reduction temperature 20%, °C": 396.3}
{"compound": "CCCCCCCCCCCCCCCCCC[N+]1(CCCC)CCCC1.O=S(=O)([N-]S(=O)(=O)C(F)(F)C(F)(F)C(F)(F)C(F)(F)F)C(F)(F)C(F)(F)C(F)(F)C(F)(F)F", "Weight reduction temperature 20%, °C": 382.5}

Next compound, please.
QUERY: Please give the documented Weight reduction temperature 20% of CCCCCCCCCCCCCCCCCCN1CCCC1.O=S1(=O)NS(=O)(=O)C(F)(F)C(F)(F)C1(F)F [Comp. Ex. 6A, reference compound]
RESULT: 379.4
